Reference source: patent US20250066503A1

- assayed_target: T1, soluble human CD3 epsilon chain (human, UniProt P07766 23-126)
- T1 construct: also called CD3ε
- T1 sequence (P07766 23-126 limits assumed): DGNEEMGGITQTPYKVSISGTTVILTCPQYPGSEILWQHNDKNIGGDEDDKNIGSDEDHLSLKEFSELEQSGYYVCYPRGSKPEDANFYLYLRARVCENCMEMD
- protocol_description: SPR
measure: Kd (nM)
Answers are plain numbers, in nM.

Examples with answers:
binder | unit | Kd
TR01H067-E22Hh/none-Hi-Kn010G3/TR01L016-k0 (antibody, V domains shown, one-arm) VH: QVQLVESGGGLVQPGRSLRLSCAASGFTFSNAWMHWVRQAPGKGLEWVAQIKDKSQNYATYYAESVKGRFTISRDDSKNSLYLQMNSLKTEDTAVYYCRYVHYAASYGVDAWGQGTTVTVSS VL: DIVMTQSPLSLPVTPGEPASISCRSSQSPVHSNRNTYLHWYLQKPGQSPQLLIYKVSNRFSGVPDRFSGSGSGTDFTLKISRVEAEDVGVYYCYQGTQVPYTFGQGTKLEIK | nM | 10.9
CE115HA178-G1dh//-Hi-Kn010G3/L0000-k0 (antibody, V domains shown, one-arm) VH: QVQLVESGGGLVQPGRSLRLSCAASGFTFSNAWMHWVRQAPGKGLEWVAQIKAKSNNYATYYAESVKGRFTISRDDSKNSIYLQMNSLKTEDTAVYYCRYVHYGAYYGVQAWGQGTTVTVSS VL: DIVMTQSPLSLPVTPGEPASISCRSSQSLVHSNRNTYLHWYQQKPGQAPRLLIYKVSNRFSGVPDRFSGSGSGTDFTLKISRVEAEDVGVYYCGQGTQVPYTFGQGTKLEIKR | nM | 10.9

With those in mind, consider the next binder.
binder TR01H013-E22Hh/none-Hi-Kn010G3/L0000-k0 (antibody, V domains shown, one-arm) VH: QVQLVESGGGLVQPGRSLRLSCAASGFTFSNAWMHWVRQAPGKGLEWVAQIKGKSQNYATYYAESVKGRFTISRADSKNSIYLQMNSLKTEDTAVYYCRYVHYGAYYGVDIWGQGTTVTVSS VL: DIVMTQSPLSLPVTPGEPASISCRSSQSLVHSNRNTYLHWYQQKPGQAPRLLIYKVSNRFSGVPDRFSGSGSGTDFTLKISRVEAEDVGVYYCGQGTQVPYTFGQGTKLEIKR , Kd observed: 49.4
